- Test system: Plasmodium falciparum
- experiment_notes: Primary screen in NF54 nanoGlo assay, in single point, at 2uM, 72h
- Type: functional, Erythrocyte
- test_conditions: timepoint 72 hour
Hit rate of the full screen: of about 150,000 compounds, about 540 (0.36%) showed an effect of 50% or more. The full list was thinned out, with strong results kept by preference.
measurement_label: % Inhibition (%)

| compound | measured_on | measurement_label | experimental_value |
| --- | --- | --- | --- |
| Cc1ccc(C(=O)C[n+]2cc(-c3ccc(-c4ccccc4)cc3)n(C)c2N)cc1 | Plasmodium falciparum | % Inhibition | 42 |
| COc1ccccc1C(=O)NC1=NN2C(=NC(c3ccc(Cl)cc3)=C[C@H]2c2ccccc2)N1 | Plasmodium falciparum | % Inhibition | -8 |
| Cc1cc(C(=O)NCc2ccncc2)c(=O)n(C)c1C | Plasmodium falciparum | % Inhibition | -11 |
| O=C(Nc1cccc(CNc2ncccn2)c1)c1ccco1 | Plasmodium falciparum | % Inhibition | -4 |
| N#Cc1ccccc1OCCN1CCS(=O)(=O)CC1 | Plasmodium falciparum | % Inhibition | -3 |
| COc1ccc(-c2cc(OC(F)(F)F)ccc2O)nn1 | Plasmodium falciparum | % Inhibition | -8 |
| CCN1CCN(c2c(CN(C(=O)NC3CCCCC3)C(C)C)c(C)nn2-c2cccc(F)c2)CC1 | Plasmodium falciparum | % Inhibition | -10 |
| Cc1cnn(C2CN(CC(=O)N3CC(=O)Nc4ccccc43)C2)c1 | Plasmodium falciparum | % Inhibition | -10 |
| CC1CCC(O)(CS(=O)(=O)Cc2nccs2)CC1 (stereo unspecified) | Plasmodium falciparum | % Inhibition | -8 |
| COc1ccc(-c2nc(C)cc(C)c2CNC(=O)c2ccco2)cc1 | Plasmodium falciparum | % Inhibition | -2 |
| Fc1ccc(C2=C[C@@H](c3ccc(Cl)cc3)N3N=C(c4ccc(Cl)cc4)NC3=N2)cc1 | Plasmodium falciparum | % Inhibition | 96 |

---

Measured % Inhibition, listed per entry.
- Test system: Plasmodium falciparum
- experiment_notes: Primary screen in NF54 nanoGlo assay, in single point, at 2uM, 72h
- Format: functional, Erythrocyte
- test_conditions: timepoint 72 hour
Hit rate of the full screen: of about 150,000 compounds, about 540 (0.36%) showed an effect of 50% or more. The sample as a whole holds a higher share of strong results than the screen did.

| chemical_structure | output_unit | % Inhibition |
| --- | --- | --- |
| C[C@@H](c1cccnc1)N(C)Cc1nc2c(s1)CCC2 | % | -18 |
| O=C1C[C@@H](C(=O)N2CC(Cc3ccoc3)C2)NC(=O)N1 | % | -12 |
| O=C(Nc1nc2c(s1)CN(S(=O)(=O)c1c(F)cccc1F)CC2)c1ccco1 | % | -5 |
| CC(C)ONC(=O)CCc1cccc(O)c1 | % | -11 |
| CCOC(=O)N1CC[C@H](NC2(c3cc(F)ccc3F)CC2)C1 | % | -9 |
| CN(c1ccc2c(c1)CCO2)S(C)(=O)=O | % | 13 |

---

Measured % Inhibition, listed per entry.
- Tested on: Plasmodium falciparum
- experiment_notes: Primary screen in NF54 nanoGlo assay, in single point, at 2uM, 72h
- Format: functional, Erythrocyte
- test_conditions: timepoint 72 hour
The campaign covered roughly 150,000 compounds. About 540 (0.36%) showed an effect of 50% or more. Only a selection was taken, and strong results are over-represented in it overall.
measurement_label: % Inhibition (%)

| compound | measured_on | experimental_value |
| --- | --- | --- |
| O=C(c1cnnn1-c1cccc(F)c1)N1CCCC12CCC2 | Plasmodium falciparum | -1 |
| CC(C)c1cccc(Nc2nc3ccncc3n(C(C)C)c2=O)c1 | Plasmodium falciparum | 91 |
| C=C1C2CCC3(C4C[C@@H]5[C@@]6(C)CCC[C@]5(C3[C@H]2O)[C@@H]4N(CC)C6)[C@@H]1O (some centres not stated) | Plasmodium falciparum | 31 |
| CO[C@H]1COCC[C@@H]1NC(=O)c1ccc(C#CC(C)(C)O)o1 | Plasmodium falciparum | 1 |
| O=C(Nc1cccc2ccccc12)C1CCN(c2cc(-c3ccc(F)cc3)ncn2)CC1 | Plasmodium falciparum | -2 |
| CNC(=O)c1[nH]nc2c1CN(CC(=O)Nc1cccc(C)c1C)CC2 | Plasmodium falciparum | -5 |
| O=c1nc2n(nc1-c1ccc(F)cc1)C1(CCCC1)Nc1ccccc1-2 | Plasmodium falciparum | -9 |
| O=c1nc2n(nc1-c1ccccc1)C1(CCCCC1)Nc1ccccc1-2 | Plasmodium falciparum | -10 |
| COc1cccc(CNC(=O)c2cnn3c4c(cnc23)C[C@@H](C)CC4)c1 | Plasmodium falciparum | 0 |
| O=c1[nH]nc(-c2ccc(Cl)cc2)c2cn(-c3ccc(Cl)cc3)nc12 | Plasmodium falciparum | -14 |
| CO[C@H]1CN(C2CCN(C(=O)CCc3c[nH]c4ccccc34)CC2)C12CCOCC2 | Plasmodium falciparum | -2 |
| COc1ccc(CCNC(=O)c2cnn3c4c(cnc23)C[C@@H](C)CC4)cc1OC | Plasmodium falciparum | 61 |
| Clc1ccc(-c2nnc(-c3ccco3)c3nocc23)cc1 | Plasmodium falciparum | 3 |
| CCOc1ccc(-c2cn(Cc3ccncc3)nn2)cc1Cl | Plasmodium falciparum | -10 |
| CCN(CC)C[C@H](O)COc1ccc(Cl)cc1Cl | Plasmodium falciparum | 9 |
| COc1ccnc(-c2ccc(F)c3cccnc23)c1 | Plasmodium falciparum | -4 |
| Cc1nnc(-c2ccco2)c2cn(-c3ccc(Cl)cc3)nc12 | Plasmodium falciparum | 69 |
| CN(C)CC(O)COc1ccc(S(=O)(=O)c2ccc(OCC(O)CN(C)C)c(Cl)c2)cc1Cl (configuration not stated) | Plasmodium falciparum | 54 |
| O=C1CNC(C(=O)N2CCC[C@H]2c2ccncc2)=NN1c1ccccc1 | Plasmodium falciparum | 3 |
| CC(C)n1ccnc1[C@H]1CCCN(C(=O)c2cnc3c(c2)CCCC3)C1 | Plasmodium falciparum | 3 |
| O=C1CC(C(=O)N2CCCC2c2ccncc2)CN1c1ccccc1 (configuration not stated) | Plasmodium falciparum | -8 |
| Cc1nn(C)c(Cl)c1CNCc1ccc(N2CCCC2=O)cc1 | Plasmodium falciparum | -5 |
